Sourced from ChEMBL document CHEMBL1158387

This listing pairs compounds with measured MIC.
system: Staphylococcus aureus; assay: Antibacterial activity against Staphylococcus aureus ATCC 25923 after 18 hrs by agar dilution technique; assay type: functional; conditions: ATCC 25923, 18 h
Write the number in µg/mL without appending the unit.

// below: answered compounds
{"compound": "O=C(O)c1cn(C2CC2)c2cc(N3CCNCC3)c(F)cc2c1=O", "unit-info": "µg/mL", "MIC": 0.3}
{"compound": "Cc1ccc(N2N=C(c3ccccc3)C(c3ccc(F)cc3)C23CCC2(C3=O)C(c3ccc(F)cc3)C(c3ccccc3)=NN2c2ccc(C)cc2)cc1 (centres undefined)", "unit-info": "µg/mL", "MIC": 10}
{"compound": "O=C1/C(=C/c2ccccc2)CC[C@@]12[C@H](c1ccccc1)C(c1ccccc1)=NN2c1ccccc1", "unit-info": "µg/mL", "MIC": 5}

Data request: What value of measured MIC is listed for O=C1C2(CCC13C(c1ccc(F)cc1)C(c1ccccc1)=NN3c1ccccc1)C(c1ccc(F)cc1)C(c1ccccc1)=NN2c1ccccc1 (centres undefined) ?
Data returned: 5
